Every entry's value here was drawn from ChEMBL document CHEMBL4414601.

TGT: Calcium-dependent protein kinase 4 (Plasmodium falciparum (isolate 3D7))
Sequence (Q8IBS5 whole entry): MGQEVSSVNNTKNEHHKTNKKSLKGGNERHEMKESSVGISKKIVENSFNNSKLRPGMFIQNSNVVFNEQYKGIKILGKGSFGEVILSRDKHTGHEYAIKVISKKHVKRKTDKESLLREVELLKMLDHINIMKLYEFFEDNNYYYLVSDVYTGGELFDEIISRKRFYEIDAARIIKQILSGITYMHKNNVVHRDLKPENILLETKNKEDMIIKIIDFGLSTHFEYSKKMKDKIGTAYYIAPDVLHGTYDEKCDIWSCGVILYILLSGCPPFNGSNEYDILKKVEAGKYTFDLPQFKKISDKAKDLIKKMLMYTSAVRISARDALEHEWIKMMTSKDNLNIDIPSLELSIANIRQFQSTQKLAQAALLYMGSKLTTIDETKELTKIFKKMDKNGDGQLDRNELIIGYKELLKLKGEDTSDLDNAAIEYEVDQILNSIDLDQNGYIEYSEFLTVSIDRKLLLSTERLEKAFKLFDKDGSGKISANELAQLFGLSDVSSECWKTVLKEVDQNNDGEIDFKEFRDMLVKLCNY
ASSAY_NAME: Binding affinity to CDPK4 in Plasmodium falciparum 3D7 blood stage extract incubated for 1 hr by kinobeads based pull down assay
EXPERIMENTAL_SETUP: read-out: Kd(app)
pKd: −log10 of the molar value.

>  <COMPOUND_STRUCTURE>
Cc1cc(Nc2nccc(-c3sc(C4CCNCC4)nc3-c3ccc(F)cc3)n2)ccn1

>  <TGT>
Calcium-dependent protein kinase 4 (Plasmodium falciparum (isolate 3D7))

>  <pKd>
7.30

$$$$
>  <COMPOUND_STRUCTURE>
Fc1ccc(-c2nc(C3CCNCC3)sc2-c2ccnc(NCCN3CCSCC3)n2)cc1

>  <TGT>
Calcium-dependent protein kinase 4 (Plasmodium falciparum (isolate 3D7))

>  <pKd>
7.22

$$$$
